# target or system: glucocorticoid receptor (GR) (Homo sapiens)
# Construct: endogenous in cells
# Sequence (P04150 whole entry): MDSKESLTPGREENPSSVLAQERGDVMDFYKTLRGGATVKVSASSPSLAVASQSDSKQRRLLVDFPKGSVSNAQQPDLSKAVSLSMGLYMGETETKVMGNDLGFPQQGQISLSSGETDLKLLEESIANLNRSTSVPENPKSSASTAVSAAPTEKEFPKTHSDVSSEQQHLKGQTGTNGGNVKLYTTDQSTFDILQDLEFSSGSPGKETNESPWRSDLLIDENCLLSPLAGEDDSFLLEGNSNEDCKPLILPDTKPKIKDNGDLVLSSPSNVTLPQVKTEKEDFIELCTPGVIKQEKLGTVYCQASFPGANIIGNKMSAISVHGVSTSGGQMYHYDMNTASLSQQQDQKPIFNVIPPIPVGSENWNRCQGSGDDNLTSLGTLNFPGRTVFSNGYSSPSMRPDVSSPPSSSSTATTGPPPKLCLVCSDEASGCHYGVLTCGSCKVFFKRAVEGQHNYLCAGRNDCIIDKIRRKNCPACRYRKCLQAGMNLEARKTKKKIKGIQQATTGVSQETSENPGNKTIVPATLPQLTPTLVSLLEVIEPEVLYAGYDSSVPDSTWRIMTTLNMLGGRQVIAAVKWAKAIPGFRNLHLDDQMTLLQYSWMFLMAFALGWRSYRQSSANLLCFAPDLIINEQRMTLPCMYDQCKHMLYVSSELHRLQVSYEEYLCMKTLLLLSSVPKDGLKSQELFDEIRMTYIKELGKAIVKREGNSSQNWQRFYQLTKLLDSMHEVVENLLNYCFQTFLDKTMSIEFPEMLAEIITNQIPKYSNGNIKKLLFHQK
# assay summary: GR Ligand Binding Assay (3H-dexamethasone displacement, HeLa cell lysate)
# condition info: 3H-DEX trace, DEX as reference, read-out: GR BIND Ki
# Procedure: Binding Buffer: TEGM (10 mM Tris-HCl, 1 mM EDTA, 10% glycerol, 1 mM beta-mecaptoethanol, 10 mM Sodium Molybdate, pH 7.2) Dexmethasone-methyl-^3H, (DEX*); (Amersham cat# TRK645) Dexamethasone(DEX) (Sigma, cat# D1756): […] 25 μL, of 3H-DEX (6 nM) trace and 25 μL compound solution are first mixed together, followed by addition of 50 μL receptor solution. […] IC50s are calculated using DEX as a reference.
reported endpoint: pKi
In textbook form, pKi equals minus log to base ten of the concentration in mol/L.

Q: Can you share its pKi? I mean this molecule: Cc1cccc(C(O)C[C@]2(CO)CCC3=Cc4c(cnn4-c4ccc(F)cc4)C[C@@]32C)c1 (single isomer, unassigned) [Example 5b]
Ans: 9.05

Q: For the molecule shown here, C[C@]12Cc3cnn(-c4ccc(F)cc4)c3C=C1CC[C@@]2(CO)CC(O)c1cccnc1 (single isomer, unassigned) [Example 15b] , give the reported pKi.
Ans: 8.08

Q: For the molecule COc1ccc(C(O)C[C@]2(CO)CCC3=Cc4c(cnn4-c4ccc(F)cc4)C[C@@]32C)nc1 (single isomer, unassigned) [Example 24a] , what pKi is on record?
Ans: 8.51

Q: # pKi lookup, item C[C@]12Cc3cnn(-c4ccc(F)cc4)c3C=C1CC[C@@]2(CO)CC(O)c1ccccc1 (single isomer, unassigned) [Example 13b]
Ans: 8.72

Q: Requested field: pKi. Item: C[C@]12Cc3cnn(-c4ccc(F)cc4)c3C=C1CC[C@@]2(CO)CC1OC(=O)c2ccccc21 (stereo partly drawn) [Example 11]
Ans: 7.72

Q: Requested read-out: pKi. Entry: C[C@]12Cc3cnn(-c4ccc(F)cc4)c3C=C1CC[C@@]2(CO)CC1OC(=O)c2ccccc21 (single isomer, unassigned) [Example 12b]
Ans: 8.82

---

Record form. Attribute: Transactivation A549 Cells GRAMMER Emax (%). Fill in for each entry.
# target or system: human GR (Homo sapiens, UniProt P04150)
# Construct: naturally expresses the human GR; endogenous in cells
# assay summary: Trans-Activation Modulation of Glucocorticoid Receptor Assay (GRAMMER), MMTV-LUC reporter in A549 cells
# Format: cell-based
# condition info: Emax relative to the activity obtained with 300 nM dexamethasone
Give just the number in %; leave the unit off.

Q: Enter reported Transactivation A549 Cells GRAMMER Emax (%) observed with human GR (Homo sapiens, UniProt P04150) for CC(O)(C[C@]1(CO)CCC2=Cc3c(cnn3-c3ccc(F)cc3)C[C@@]21C)c1cccnc1 (single isomer, unassigned) [Example 25b]
Ans: 7.6

Q: Given the entry CC(C)C(O)C[C@]1(CO)CCC2=Cc3c(cnn3-c3ccc(F)cc3)C[C@@]21C (single isomer, unassigned) [Example 14b] , what Transactivation A549 Cells GRAMMER Emax (%) was observed with human GR (Homo sapiens, UniProt P04150)?
Ans: 32.6

Q: // fetch human GR (Homo sapiens, UniProt P04150) Transactivation A549 Cells GRAMMER Emax (%) for C[C@]12Cc3cnn(-c4ccccc4)c3C=C1CC[C@@]2(CO)CC(O)c1ccccn1 (single isomer, unassigned) [Example 23b]
Ans: 47.7

Q: Given the entry C[C@]12Cc3cnn(-c4ccc(F)cc4)c3C=C1CC[C@@]2(CO)CC1OC(=O)c2ccccc21 (single isomer, unassigned) [Example 12b] , what Transactivation A549 Cells GRAMMER Emax (%) was observed with human GR (Homo sapiens, UniProt P04150)?
Ans: 54.2

Q: Please state recorded Transactivation A549 Cells GRAMMER Emax (%) (tested on human GR (Homo sapiens, UniProt P04150)) of C[C@]12Cc3cnn(-c4cccc(F)c4)c3C=C1CC[C@@]2(CO)CC(O)c1cccnc1 (single isomer, unassigned) [Example 27a]
Ans: 6.8

Q: What is its Transactivation A549 Cells GRAMMER Emax (%) for human GR (Homo sapiens, UniProt P04150)? Entry: C[C@]12Cc3cnn(-c4ccc(F)cc4)c3C=C1CC[C@@]2(CO)CC(O)c1cc(F)cc(Cl)c1 (single isomer, unassigned) [Example 6b]
Ans: 84.7
